The measured values listed here are drawn from patent US7282522B2.

System: elastase
Experiment: Inhibition of elastase expression in human fibroblasts (ELISA kit)
Assay type: cell-based
Settings: 10^−4M, 24 hours, serum-free medium, relative to control group = 100
metric: Elastase expression (%)
Hi! Could you send only the number? It should be in %, unit omitted.

>>> print(df.to_string())
                           structure_string  subject_of_test  recorded_measurement
0     Cc1cccc(N(C)C(=O)c2ccc(C(=O)NO)cc2)c1         elastase                    83
1  CN(C(=O)c1ccc(C(C)(C)C)cc1)c1ccc(C(=O)NO)cc1         elastase                    80
2  O=C(Cc1ccc(NC(=O)C23CC4CC(CC(C4)C2)C3)cc1)NO         elastase                    74
3        Cc1cccc(C(=O)Nc2ccc(C(=O)NO)cc2)c1         elastase                    69
4        CN(C(=O)c1ccccc1)c1ccc(C(=O)NO)cc1         elastase                    80
5    CCCCc1ccc(C(=O)Nc2ccc(CC(=O)NO)cc2)cc1         elastase                    70
6      Cc1ccc(C(=O)Nc2ccc(CC(=O)NO)cc2)cc1C         elastase                    63
7      CCc1ccc(C(=O)Nc2ccc(CC(=O)NO)cc2)cc1         elastase                    86

Next, consider the following compound.
Incoming: Using the record for CCCCc1ccc(N(C)C(=O)c2ccc(C(=O)NO)cc2)cc1 , state its measured Elastase expression (%).
Outgoing: 77

* * *

Elastase expression (%) values, listed per item
System: elastase
Test: Inhibition of elastase expression in human fibroblasts (ELISA kit)
Type: cell-based
Details: 10^−4M, 24 hours, serum-free medium, relative to control group = 100
Hi! Could you send only the number? It should be in %, unit omitted.

Sample answers from the record:
>>> print(df.to_string())
                                   molecule                   metric  quantity_unit  recorded_measurement
0  CC1=C(/C=C/C(C)=C/C=C/C(C)=C/CO)C(C)(C)CCC1 [Retinol, retinol, reference compound]  Elastase expression (%)              %                    88
1    CCc1ccc(N(C)C(=O)c2ccc(C(=O)NO)cc2)cc1  Elastase expression (%)              %                    87
2       Cc1ccc(C(=O)Nc2ccc(CC(=O)NO)cc2)cc1  Elastase expression (%)              %                    82
3   CC(C)c1ccc(C(=O)Nc2ccc(CC(=O)NO)cc2)cc1  Elastase expression (%)              %                    79

Next, consider the following molecule.
Incoming: Using the record for CC(C)c1ccc(NC(=O)c2ccc(C(=O)NO)cc2)cc1 , state its measured Elastase expression (%).
Outgoing: 87

* * *

Test system: collagenase
Test: Inhibition of collagenase expression in human fibroblasts (ELISA kit)
Format: cell-based
Details: 10^−4M, 24 hours, serum-free medium, relative to control group = 100
metric: Collagenase expression (%)
Hi! Could you send only the number? It should be in %, unit omitted.

In [3]: df
Out[3]:
                                   compound                      metric  quantity_unit  recorded_measurement
0  Cc1ccc(NC(=O)c2ccc(C(=O)NO)cc2)cc1C [Example 42]  Collagenase expression (%)              %                    78
1  CCCc1ccc(N(C)C(=O)c2ccc(C(=O)NO)cc2)cc1 [Example 49]  Collagenase expression (%)              %                    81
2  CN(C(=O)c1ccccc1)c1ccc(C(=O)NO)cc1 [Example 12]  Collagenase expression (%)              %                    64
3  O=C(Cc1ccc(NC(=O)C23CC4CC(CC(C4)C2)C3)cc1)NO [Example 32]  Collagenase expression (%)              %                    79
4  O=C(Cc1ccc(NC(=O)c2ccccc2)cc1)NO [Example 23]  Collagenase expression (%)              %                    77
5  CN(C(=O)c1ccc(C(=O)NO)cc1)c1ccc(C(C)(C)C)cc1 [Example 52]  Collagenase expression (%)              %                    77
6  CN(O)C(=O)Cc1ccc(NC(=O)C23CC4CC(CC(C4)C2)C3)cc1 [Example 33]  Collagenase expression (%)              %                    70
7  CCCCc1ccc(C(=O)Nc2ccc(C(=O)NO)cc2)cc1 [Example 7]  Collagenase expression (%)              %                    84

Incoming: Using the record for CN(C(=O)c1ccc(C(=O)NO)cc1)C12CC3CC(CC(C3)C1)C2 [Example 54] , state its measured Collagenase expression (%).
Outgoing: 83

Incoming: Using the record for CCCc1ccc(C(=O)Nc2ccc(C(=O)NO)cc2)cc1 [Example 5] , state its measured Collagenase expression (%).
Outgoing: 79
